Sequence of the target: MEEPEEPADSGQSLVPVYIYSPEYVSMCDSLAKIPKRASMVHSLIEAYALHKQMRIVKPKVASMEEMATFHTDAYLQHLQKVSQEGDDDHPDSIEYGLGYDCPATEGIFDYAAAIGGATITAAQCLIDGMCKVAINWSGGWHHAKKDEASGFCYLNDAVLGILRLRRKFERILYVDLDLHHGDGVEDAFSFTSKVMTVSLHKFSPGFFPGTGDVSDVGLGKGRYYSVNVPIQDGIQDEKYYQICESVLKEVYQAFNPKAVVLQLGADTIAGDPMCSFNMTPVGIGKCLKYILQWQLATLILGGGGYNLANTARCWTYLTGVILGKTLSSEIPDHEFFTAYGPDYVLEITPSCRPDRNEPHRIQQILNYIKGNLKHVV
ENDPOINT_LABEL: IC50 (nM)

COMPOUND_STRING	ENDPOINT_LABEL	READING_UNIT	RECORDED_MEASUREMENT
O=C1CC/C=C/CCC(=O)N(Cc2cccc(/C=N/NC(=O)c3cccc(C(=O)NO)c3)c2)C[C@@H](c2ccccc2)O1	IC50	nM	23

(I) O=C1CC/C=C/CCC(=O)N(Cc2cccc(/C=N/NC(=O)c3cccc(C(=O)NO)c3)c2)C[C@H](c2ccccc2)O1
(II) C#CCOc1ccc(/C=N/NC(=O)c2cccc(C(=O)NO)c2)cc1
Thinking about recorded IC50 values, which is higher, I or II ? Your answer should be the label of the entry you select.
I
(I: 110 nM, II: 29 nM)

Taken from ChEMBL document CHEMBL1770095.
